test system: human 11β-HSD1 (Homo sapiens, UniProt P28845)
Sequence (P28845 whole entry): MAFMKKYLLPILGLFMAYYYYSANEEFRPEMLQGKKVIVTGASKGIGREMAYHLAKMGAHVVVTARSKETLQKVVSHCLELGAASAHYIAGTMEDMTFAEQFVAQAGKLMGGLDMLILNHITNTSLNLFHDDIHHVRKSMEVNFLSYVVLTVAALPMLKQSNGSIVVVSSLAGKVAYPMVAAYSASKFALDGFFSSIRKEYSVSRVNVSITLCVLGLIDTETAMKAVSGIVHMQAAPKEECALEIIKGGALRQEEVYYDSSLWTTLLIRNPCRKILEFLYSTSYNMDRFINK
experimental protocol: scintillation proximity assay (SPA), microsomes of HEK-293 cells transfected with human 11β-HSD1
condition description: Table 3; SI = IC50(HSD2)/IC50(HSD1), human
attribute measured: Human SI (selectivity index)

// known answers, use as guide
compound: Cc1c(CO)oc2c1C(=O)C(=O)c1c-2ccc2c1CCCC2(C)C [Compound 28b]
Human SI (selectivity index): 62.9
//
compound: Cc1coc2c1C(=O)C(=O)c1c-2ccc2c1CCC(=O)C2(C)C
Human SI (selectivity index): 28.0
//
compound: Cc1c(CN(C)C)oc2c1C(=O)C(=O)c1c-2ccc2c1CCCC2(C)C [Compound 29a]
Human SI (selectivity index): 147.9
//
compound: CC(=O)OC1CCc2c(ccc3c2C(=O)C(=O)c2c(C)coc2-3)C1(C)C (centres unmarked)
Human SI (selectivity index): 8.2
//
compound: Cc1coc2c1C(=O)C(=O)c1c-2ccc2c1C=CCC2(C)C
Human SI (selectivity index): 9.9
//
compound: Cc1c(CN2CCCCC2)oc2c1C(=O)C(=O)c1c-2ccc2c1CCCC2(C)C [Compound 29b]
Human SI (selectivity index): 151.9
//
compound: CC1(C)C(=O)C=Cc2c1ccc1c2C(=O)C(=O)c2c(CO)coc2-1
Human SI (selectivity index): 2.2
//
compound: Cc1coc2c1C(=O)C(=O)c1c-2ccc2c1C=CC(=O)C2(C)C
Human SI (selectivity index): 19.6
//
compound: Cc1c(CN2CCN(C)CC2)oc2c1C(=O)C(=O)c1c-2ccc2c1CCCC2(C)C [Compound 29d]
Human SI (selectivity index): 13.6
//
compound: Cc1coc2c1C(=O)C(=O)c1c-2ccc2c1C[C@@H](O)CC2(C)C
Human SI (selectivity index): 8.3

1 = Cc1c(COCO)oc2c1C(=O)C(=O)c1c-2ccc2c1CCCC2(C)C [Compound 28a]
2 = Cc1c(Br)oc2c1C(=O)C(=O)c1c-2ccc2c1C=CCC2(C)C
Query: In the pair 1 and 2 , the larger recorded Human SI (selectivity index) belongs to which? Refer to your chosen item by its label in the answer.
Response: 1

====

test system: mouse 11β-HSD1 (Mus musculus, UniProt P50172)
Sequence (P50172 whole entry): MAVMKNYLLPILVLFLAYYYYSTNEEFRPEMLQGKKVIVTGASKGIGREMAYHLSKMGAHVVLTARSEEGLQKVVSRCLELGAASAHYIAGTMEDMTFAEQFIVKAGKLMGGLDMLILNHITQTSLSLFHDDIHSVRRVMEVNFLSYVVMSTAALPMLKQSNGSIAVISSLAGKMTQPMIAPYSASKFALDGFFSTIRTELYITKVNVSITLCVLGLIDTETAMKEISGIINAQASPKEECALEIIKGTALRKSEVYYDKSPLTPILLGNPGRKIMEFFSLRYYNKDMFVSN
experimental protocol: scintillation proximity assay (SPA), microsomes of HEK-293 cells transfected with mouse 11β-HSD1
condition description: Table 3; SI = IC50(HSD2)/IC50(HSD1), mouse
Here, each record is paired with measured Mouse SI (selectivity index) data.

// known answers, use as guide
molecule: Cc1c(COCO)oc2c1C(=O)C(=O)c1c-2ccc2c1CCCC2(C)C [Compound 28a]
test system: mouse 11β-HSD1 (Mus musculus, UniProt P50172)
Mouse SI (selectivity index): > 1261.0
//
molecule: CC(=O)OC1CCc2c(ccc3c2C(=O)C(=O)c2c(C)coc2-3)C1(C)C (centres unmarked) [Compound 16]
test system: mouse 11β-HSD1 (Mus musculus, UniProt P50172)
Mouse SI (selectivity index): > 9900.9
//
molecule: CC1(C)CCCc2c1ccc1c2C(=O)C(=O)c2c(CO)coc2-1 [Compound 30]
test system: mouse 11β-HSD1 (Mus musculus, UniProt P50172)
Mouse SI (selectivity index): > 4510.6
//
molecule: Cc1coc2c1C(=O)C(=O)c1c-2ccc2c1C[C@@H](O)CC2(C)C [Compound 19]
test system: mouse 11β-HSD1 (Mus musculus, UniProt P50172)
Mouse SI (selectivity index): > 206.6

Now let's try a different one.
Query: Fill in Mouse SI (selectivity index) for record Cc1c(Br)oc2c1C(=O)C(=O)c1c-2ccc2c1C=CCC2(C)C [Compound 33]
Response: > 2551.0
